Tested on: Medicago sativa
Assay: Herbicidal activity against Medicago sativa (alfalfa) assessed as inhibition of herb growth at 1.5 kg/ha during preemergence treatment protocol
Type: functional
Settings: pre-emergence, read-out: GI

structure: CCOCCOC(=O)/C(C#N)=C(\NCc1cnc2ccccc2c1)SC
inhibition of growth at 1500 g/ha / %: 10

structure: CCOCCOC(=O)/C(C#N)=C(\NCc1coc(-c2cccc(Cl)c2)n1)C(C)C
inhibition of growth at 1500 g/ha / %: 5

structure: CCOCCOC(=O)/C(C#N)=C(\NCc1cnc2ccccc2c1)C(C)C
inhibition of growth at 1500 g/ha / %: 0

structure: CCOCCOC(=O)/C(C#N)=C(\NCc1ccc2ccccc2n1)SC
inhibition of growth at 1500 g/ha / %: 0

structure: CCOCCOC(=O)/C(C#N)=C(\NCc1coc(-c2ccccc2)n1)SC
inhibition of growth at 1500 g/ha / %: 5

structure: CCOCCOC(=O)/C(C#N)=C(\NCc1nc(-c2ccc(F)cc2)no1)C(C)C
inhibition of growth at 1500 g/ha / %: 0

structure: CCOCCOC(=O)/C(C#N)=C(/CC)NCc1ccc2ccccc2n1
inhibition of growth at 1500 g/ha / %: 0

structure: CCOCCOC(=O)/C(C#N)=C(\NCc1coc(-c2ccccc2)n1)C(C)C
inhibition of growth at 1500 g/ha / %: 0

structure: CCOCCOC(=O)/C(C#N)=C(\NCc1ccc2ncccc2c1)C(C)C
inhibition of growth at 1500 g/ha / %: 0

structure: CCOCCOC(=O)/C(C#N)=C(\NCc1ncc(C(C)C)o1)C(C)C
inhibition of growth at 1500 g/ha / %: 0

Ref: ChEMBL document CHEMBL3045368
